- Experimental Target: Replication protein A 70 kDa DNA-binding subunit (Homo sapiens, UniProt P27694)
- Sequence (P27694 whole entry): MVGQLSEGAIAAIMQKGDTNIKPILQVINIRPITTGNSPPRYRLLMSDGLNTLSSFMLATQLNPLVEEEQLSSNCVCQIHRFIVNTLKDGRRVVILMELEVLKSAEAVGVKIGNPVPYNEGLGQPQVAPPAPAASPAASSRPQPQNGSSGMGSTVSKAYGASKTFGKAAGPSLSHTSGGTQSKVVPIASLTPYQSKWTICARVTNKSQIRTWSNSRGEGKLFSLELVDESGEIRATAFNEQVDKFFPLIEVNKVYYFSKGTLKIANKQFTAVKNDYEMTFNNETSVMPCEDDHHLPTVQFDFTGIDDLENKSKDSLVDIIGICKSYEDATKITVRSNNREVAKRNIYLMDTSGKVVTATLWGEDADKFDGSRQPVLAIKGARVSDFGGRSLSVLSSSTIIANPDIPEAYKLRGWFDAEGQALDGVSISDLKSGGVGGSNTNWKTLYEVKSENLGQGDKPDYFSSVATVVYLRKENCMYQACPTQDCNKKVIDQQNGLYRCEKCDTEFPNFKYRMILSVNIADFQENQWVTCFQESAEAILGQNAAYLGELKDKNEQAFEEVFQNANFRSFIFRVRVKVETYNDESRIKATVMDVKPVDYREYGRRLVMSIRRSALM
- Procedure Details: Binding affinity to human RPA70N assessed as inhibition of interaction with FITC-Ahx-DFTADDLEELDTLAS-NH2 after 1 hr by fluorescence polarization anisotropy assay
pKd: −log10 of the molar value.
pKd values by entry

Use the examples below as a reference point.
>>> reported("Cc1ccccc1-c1nnc(S)n1-c1ccc2cc(C(=O)O)sc2c1")
"< 3.60"
>>> reported("O=C(O)CSc1nnc(-c2ccccc2Cl)n1-c1cccc(Cl)c1")
"< 3.60"
>>> reported("Cc1cccc(-c2n[nH]c(=S)n2-c2ccc3cc(C(=O)O)sc3c2)c1")
"< 3.60"
>>> reported("O=C(O)CSc1nnc(-c2ccc(F)cc2)n1-c1cccc(Cl)c1")
"< 3.60"
>>> reported("O=C(O)c1cc2ccc(-n3c(S)nnc3-c3ccccc3)cc2s1")
"< 3.60"

// next entry
Data request: Which measured pKd value corresponds to `O=C(O)c1cc2ccc(-n3c(S)nnc3-c3ccc(Cl)cc3)cc2s1` ?
Data returned: 4.11
